- Study Target: N336S mutant A. niger monoamine oxidase (Aspergillus niger, UniProt P46882, A300V/K348M/L304V/N336S/R450G)
- Construct: made in house; host or cells: E. coli BL21(DE3), pET16b
- Sequence (P46882 whole entry A300V/L304V/N336S/K348M/R450G): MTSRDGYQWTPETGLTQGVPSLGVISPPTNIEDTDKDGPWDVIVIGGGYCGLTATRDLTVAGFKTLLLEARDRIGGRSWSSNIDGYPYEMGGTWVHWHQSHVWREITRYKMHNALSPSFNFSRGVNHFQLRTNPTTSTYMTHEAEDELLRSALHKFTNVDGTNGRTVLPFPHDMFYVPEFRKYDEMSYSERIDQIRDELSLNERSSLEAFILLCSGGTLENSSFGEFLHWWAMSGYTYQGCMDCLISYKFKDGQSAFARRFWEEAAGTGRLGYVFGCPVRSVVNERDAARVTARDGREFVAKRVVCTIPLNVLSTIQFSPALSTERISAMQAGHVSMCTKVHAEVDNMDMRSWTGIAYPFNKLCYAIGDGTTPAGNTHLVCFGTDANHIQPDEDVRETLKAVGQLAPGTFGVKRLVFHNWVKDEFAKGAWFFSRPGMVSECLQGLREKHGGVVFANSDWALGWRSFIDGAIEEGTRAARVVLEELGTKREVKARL
- Type: biochemical
- Experimental Conditions: relative to (S)-α Methylbenzylamine = 1
Measurement Label: Relative Rate
Just the number, please.

Please review the entries below; each comes with its answer.
# Compound, Measurement Label, Result Value
rows = [
    ("CCCCCCN [Hexylamine]", "Relative Rate", 18.6),
    ("C[C@@H](N)c1ccc([N+](=O)[O-])cc1 [(R)-α-Methyl-4-nitrobenzylamine]", "Relative Rate", 0.06),
]

Value lookup for Relative Rate; key = CC(C)CC(C)N (stereo not drawn) [1,3-Dimethylbutylamine]
1.8

----------
Reported Relative Rate is given for each of the following molecules.
- Study Target: N336S mutant A. niger monoamine oxidase (Aspergillus niger, UniProt P46882, A300V/K348M/L304V/N336S/R450G)
- Construct: made in house; host or cells: E. coli BL21(DE3), pET16b
- Assay type: biochemical
- Experimental Conditions: relative to (S)-α Methylbenzylamine = 1
Just the number, please.

# Molecule, Result Value
measured = [
    ("Cc1ccc([C@H](C)N)cc1", 0.28),
    ("CCCCCN", 25.2),
    ("CC(N)c1ccccc1 (centres unmarked)", 1),
    ("CCCCCCCN", 12.1),
]

Value lookup for Relative Rate; key = COc1ccc([C@H](C)N)cc1 [(S)-1-4-Methoxyphenylethylamine]
0.81

Follow-up item: C[C@H](N)C(C)(C)C [(S)-3-3-Dimethyl-2-butylamine]
1.4

Follow-up item: C[C@H](N)c1ccc([N+](=O)[O-])cc1 [(S)-α-Methyl-4-nitrobenzylamine]
0.91

Follow-up item: CC1CCCCC1N (centres unmarked)
0.43

----------
- Study Target: wild-type A. niger MAO-N enzyme (Aspergillus niger, UniProt P46882, A300V/K348M/L304V/R450G)
- Construct: made in house; host or cells: E. coli BL21(DE3), pET16b
- Sequence (P46882 whole entry A300V/L304V/K348M/R450G): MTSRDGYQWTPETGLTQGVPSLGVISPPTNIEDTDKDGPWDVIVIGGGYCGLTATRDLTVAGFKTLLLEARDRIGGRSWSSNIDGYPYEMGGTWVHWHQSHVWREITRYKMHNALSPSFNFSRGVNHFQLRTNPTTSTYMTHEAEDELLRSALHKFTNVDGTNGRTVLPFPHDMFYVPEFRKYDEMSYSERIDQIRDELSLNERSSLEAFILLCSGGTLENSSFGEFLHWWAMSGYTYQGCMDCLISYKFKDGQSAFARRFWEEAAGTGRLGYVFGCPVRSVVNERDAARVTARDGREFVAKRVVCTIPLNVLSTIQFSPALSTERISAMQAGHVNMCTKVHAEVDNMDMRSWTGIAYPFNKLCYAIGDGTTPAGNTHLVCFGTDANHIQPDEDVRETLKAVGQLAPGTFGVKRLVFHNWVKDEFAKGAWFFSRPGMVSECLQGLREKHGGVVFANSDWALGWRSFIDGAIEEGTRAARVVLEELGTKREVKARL
- Protocol Notes: Colorimetric hydrogen peroxide (HRP/TBHBA/4-aminoantipyrine) amine oxidase assay, purified wild-type enzyme
- Assay type: biochemical
- Experimental Conditions: purified wild-type enzyme; active enzyme from FAD absorbance at 458 nm
Measurement Label: kcat, Wild-type Enzyme (s⁻¹)
Output spec: scalar in s⁻¹, unitless text.

# Compound, Result Value
data = [
    ("CCCCCN", 16.67),
]

Value lookup for kcat, Wild-type Enzyme; key = CC(N)c1ccccc1 [D-AMBA, α-methylbenzylamine]
0.00017

Follow-up item: CC(N)c1ccccc1 [L-AMBA, L-α-methylbenzylamine]
0.00283

Follow-up item: NCc1ccccc1
6.18

----------
- Study Target: N336S mutant A. niger monoamine oxidase (Aspergillus niger, UniProt P46882, A300V/K348M/L304V/N336S/R450G)
- Construct: made in house; host or cells: E. coli BL21(DE3), pET16b
- Format: biochemical
- Experimental Conditions: relative to (S)-α Methylbenzylamine = 1
- Procedure: 5 ml phosphate buffer (1 M, pH 7.6) 500 μl 2,4,6-tribromo-3-hydroxybenzoic acid (2% in DMSO) 37.5 μl 4-aminoantipyrine (1.5 M) • 30 μl amine substrate (final concentration 0.015-5 mM) • 44.4 ml water Assay Conditions: • 990 μl assay mixture • 5 μl horse radish peroxidase (1 mg·ml^−1) • 10 μl enzyme The spectrophotometer was blanked against assay mixture and HRP. Enzyme was added and the absorbance at 500 nm measured at 3 s intervals for a 10 minute period. […]
Reported Relative Rate is given for each of the following molecules.
Just the number, please.

# Molecule, Measurement Label, Result Value
rows = [
    ("C[C@H](N)c1ccc(Br)cc1 [(S)-4-Bromo-α-phenylethylamine]", "Relative Rate", 0.24),
    ("COc1ccc([C@@H](C)N)cc1 [(R)-1-4-Methoxyphenylethylamine]", "Relative Rate", 0.13),
]

Value lookup for Relative Rate; key = CC(C)[C@H](C)N [(S)-3-Methyl-2-butylamine]
5.4

Measured values drawn from patent US8178324B2 for this set.
